Assay: Pharmacokinetic analysis of CBN and metabolites in rat plasma and brain (LC-MS/MS)
Format: in vivo
Conditions: rat, plasma, intraperitoneal; rats, 10 mg/kg CBN dose
property name: Cmax (ng/mL)

* CCCCCc1cc(O)c2c(c1)OC(C)(C)c1ccc(C)cc1-2 | 374
